Data credit: patent US20240368159A1

# SYSTEM: HPK1 protein (Mus musculus, UniProt P70218)
# Construct: the CD3+ T cell population was isolated from spleenocytes of mice; endogenous in cells; host or cells: primary mouse splenic CD3+ (pan) T cells
# Sequence (P70218 1-827): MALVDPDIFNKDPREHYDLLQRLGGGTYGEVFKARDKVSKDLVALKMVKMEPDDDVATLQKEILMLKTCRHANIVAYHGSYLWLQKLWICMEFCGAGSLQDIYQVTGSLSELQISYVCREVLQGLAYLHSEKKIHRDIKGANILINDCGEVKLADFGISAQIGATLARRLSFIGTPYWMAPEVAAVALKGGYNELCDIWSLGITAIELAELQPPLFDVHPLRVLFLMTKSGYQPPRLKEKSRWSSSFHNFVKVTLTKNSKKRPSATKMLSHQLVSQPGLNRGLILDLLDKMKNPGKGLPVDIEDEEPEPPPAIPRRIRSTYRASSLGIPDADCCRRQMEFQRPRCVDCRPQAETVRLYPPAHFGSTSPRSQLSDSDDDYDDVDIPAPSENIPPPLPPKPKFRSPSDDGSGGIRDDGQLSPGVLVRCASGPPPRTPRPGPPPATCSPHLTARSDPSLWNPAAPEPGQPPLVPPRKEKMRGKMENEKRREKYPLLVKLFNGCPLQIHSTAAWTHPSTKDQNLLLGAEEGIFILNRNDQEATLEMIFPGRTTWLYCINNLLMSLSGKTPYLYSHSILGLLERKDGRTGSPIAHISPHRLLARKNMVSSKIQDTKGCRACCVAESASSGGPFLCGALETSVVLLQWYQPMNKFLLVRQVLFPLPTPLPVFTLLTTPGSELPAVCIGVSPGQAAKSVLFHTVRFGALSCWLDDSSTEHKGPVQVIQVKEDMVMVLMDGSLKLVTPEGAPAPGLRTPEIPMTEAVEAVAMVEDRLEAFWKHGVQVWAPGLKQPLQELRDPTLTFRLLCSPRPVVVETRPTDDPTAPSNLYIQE
# TEST: HPK1 protein degradation in mouse pan T cell (western blot)
# Type: cell-based
# DETAILS: 18 h incubation
For each entry below, report its Dmax value.
Form entry: value (%) — number only.

input: Param item = O=C1CCC(N2Cc3cc(C4CCN(CCCN5CCN(c6cccc(-c7cnc8[nH]cc(C9CC9)c8c7Cl)c6)C(=O)C5)CC4)ccc3C2=O)C(=O)N1 (stereo not drawn) ; retrieve measured Dmax.
output: 95

input: Next entry: CCc1c[nH]c2ncc(-c3cccc(N4CCN(CC(=O)N5CCN(c6cc7c(cc6F)C(=O)N(C6CCC(=O)NC6=O)C7=O)CC5)CC4=O)c3)c(Cl)c12 (stereo not drawn)
output: 80

input: Next entry: O=C1CCC(N2C(=O)c3cc(F)c(N4CCN(CCCN5CCN(c6cccc(-c7cnc8[nH]cc(CC(F)F)c8c7Cl)c6)C(=O)C5)CC4)cc3C2=O)C(=O)N1 (stereo not drawn)
output: 95

input: Next entry: O=C1CCC(c2ccc(C3CCN(CCCN4CCN(c5cccc(-c6cnc7[nH]cc(C8CC8)c7c6Cl)c5)C(=O)C4)CC3)cc2)C(=O)N1 (stereo not drawn)
output: 95

input: Next entry: CCc1c[nH]c2ncc(-c3cccc(N4CCN(S(=O)(=O)CCCN5CCN(c6ccc7c(c6)C(=O)N(C6CCC(=O)NC6=O)C7=O)CC5)CC4=O)c3)c(Cl)c12 (stereo not drawn)
output: 90

input: Next entry: O=C1CCC(N2Cc3cc(F)c(N4CCC(CCN5CCN(c6cccc(-c7cnc8[nH]cc(C9CC9)c8c7Cl)c6)C(=O)C5)CC4)cc3C2=O)C(=O)N1 (stereo not drawn)
output: 50
